- EXPERIMENTAL_SYSTEM: UniProt:P00746
- Sequence (P00746 whole entry): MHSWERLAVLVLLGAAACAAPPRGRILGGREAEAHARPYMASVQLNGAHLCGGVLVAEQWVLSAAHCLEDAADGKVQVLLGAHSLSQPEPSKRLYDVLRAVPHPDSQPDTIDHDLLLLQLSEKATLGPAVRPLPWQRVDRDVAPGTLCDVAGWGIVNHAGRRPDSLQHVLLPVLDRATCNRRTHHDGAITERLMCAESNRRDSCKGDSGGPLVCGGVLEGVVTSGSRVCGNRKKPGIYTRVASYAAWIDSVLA
- ASSAY_NAME: Human Factor D Assay: Human Factor D (purified from human serum, Complement Technology, Inc.) at 80 nM final concentration is incubated with test compound at various concentrations for 5 minutes at room temperature in 50 mM Tris, 1M NaCl, pH 7.5. A synthetic substrate Z-L-Lys-SBzl and DTNB (Ellman's reagent) are added to final concentrations of 100 μM each. Absorbance at 405 nm (A405) is recorded at 30 second intervals for 30 minutes using a microplate spectrophotometer. IC50 values are calculated by nonlinear regression of complement Factor D reaction rates as a function of test compound concentration.
REPORTED_PROPERTY: IC50

input: Bench note: what IC50 did CC(=O)c1nn(CC(=O)N2C[C@H](F)C[C@H]2C(=O)Nc2cccc(Br)n2)c2ccc(-c3cnc(S(C)(=O)=NC(=O)OC(C)(C)C)nc3)cc12 (stereo partly specified) show?
output: < 1 µM
